experiment: Pharmacokinetics after intravenous infusion in humans; format: in vivo; details: in vivo; Human, 30-minute IV Infusion, 2.0 mg (0.9 mg/m^2)
quantity name: clearance (mL/min/kg)
A number alone suffices; assume mL/min/kg.

Task item: Requested field: clearance. Item: CO[C@@H]1[C@H](OC(=O)/C=C/c2ccc(OCCN(C)C)cc2)CC[C@]2(CO2)[C@H]1[C@@]1(C)O[C@@H]1CC=C(C)C [beloranib, reference compound]
Reply: 64.5

###

assay: Protein binding in dog plasma (dialysis); format: in vitro ADME; conditions: Dog Plasma, intended 100 nM, actual 59.1 nM; read-out: % Bound (converted)
quantity name: fraction unbound at 4 h, 100 nM
Would you mind answering with just the numeric figure?

Task item: Which fraction unbound at 4 h, 100 nM is listed for `CO[C@@H]1[C@H](OC(=O)N2CC(CCN3CCOCC3)C2)CC[C@]2(CO2)[C@H]1[C@@]1(C)O[C@@H]1CC=C(C)C` ?
Reply: 0.403
